Hey, just so you know, these numbers are from a protein production outcome set (Wang et al. 2014).

ASSAY_INFO: label from the status in PepcDB records

CHAIN_SEQUENCE	protein production
MAVTPVLACYRTCDAAIGGITAWQVTTGPDGPRTNVVGSCPLGDASWVTPLYHLVVVLCERDGTLVVVHPGREFQVVGTVQLKGQWPCHGAVDPTGRLMAVADYASGQVEFVDLSDPTRPTVRNVLDLGQGCVFPRPVADRQEGPHAHQVTWLDRAHLAVTDLGADRINVVRWSEAGPEIIGSLKTPAGCGPRHLTLTEDGRKQILTVGGALSGTVSTWSRPTGHDMWAREWRFVQETASSRWSHTGSQERRSACTPASPSAIVTTPDGRHFVANRSVGSIGILGGRFGRINLIDEFDTTGANPRDITVTTQNGTRVWVALPEEGQIAIHLRDEDTGGWQVETTIDQPGAMRVIVGPTTG	failed
MALNLKQRLEQKFEEEIRFFKGMVSQPKKVGAIVPTSSITAKKMASVINPHSGLPVLELGPGTGVITKAILARGIKPESLTAIEYSTDFYNQLLRSYPGVNFVNGDAFDLDATLGEHKGQMFDSVISAVPMLNFPMAARIKLLDELLKRVPHGRPVVQISYGPISPIVAQPHLYHIRHFDFIVRNIPPAQLWTYTRALEHHHHHH	failed
